The origin of these recorded values is patent US20260201008A1.

I'd appreciate it if you could supply pEC50 hGLPR1 values for the items below.
# target desc: human GLP-1 receptor (hGLP1R) (human, UniProt P43220 24-463)
# assay overview: cell-based or functional assay
Numbered stars: 1 amine (or outer) side, 2 acyl side, 3 side chain; on linkers, the order of the positions; unused ones are H or OH. Square brackets hold non-standard residues; d marks the D form. Side chains are listed from the residue outwards. Ends that are not written are not given here. * marks the point of attachment. C20 diacid = O=C(O)CCCCCCCCCCCCCCCCCCC(=O)*; γGlu = O=C(O)[C@H](CCC(=O)[*:2])N[*:1]; AEEA = NCCOCCOCC(=O)O; Aib = CC(C)(N)C(=O)O

binder: H[Aib]EGTFTSDVSYLKEEALLQRFLEHLV-NH2 (not fully specified (residue 14)) [SEQ ID NO: 132]
recorded value: 10.7 -log M
--
binder: H[Aib]QGTFTSDVSYLKEEA[Aib]LQRFLEHLV-NH2 (not fully specified (residue 14)) [SEQ ID NO: 156]
recorded value: 10.8 -log M
--
binder: H[Aib]EGTFTSDVSRLK([AEEA-AEEA-γGlu-C20 diacid])ELAAQQRFLEHLV-NH2 [SEQ ID NO: 3]
recorded value: 10.8 -log M

I need pEC50 hGLPR1 for every entry listed below, if you could help.
1. H[Aib]EGTFTSDVSYLKEEA[Aib]LQRFLEKLV-NH2 (not fully specified (residue 14)) [SEQ ID NO: 147]
2. H[Aib]EGTFTSDVSVLK([AEEA-AEEA-γGlu-C20 diacid])EFAAAQRFLEHLV-NH2 [SEQ ID NO: 29]
3. H[Aib]EGTFTSDVSVLK([AEEA-AEEA-γGlu-C20 diacid])ELAAQQRFLEHLV-NH2 [SEQ ID NO: 33]
4. H[Aib]EGTFTSDVSTLK([AEEA-AEEA-γGlu-C20 diacid])EEA[Aib]LQRFLEHLV-NH2 [SEQ ID NO: 165]

### Response
1: 11.3 -log M; 2: 10 -log M; 3: 10.2 -log M; 4: 11.2 -log M

Could you tell me pEC50 hGLPR1 for each of these binders? They are listed below.
1. H[Aib]EGTFTSDVSYLKEEA[Aib]LQRFLEFLV-NH2 (not fully specified (residue 14)) [SEQ ID NO: 133]
2. H[Aib]EGTFTSDVSELK([AEEA-AEEA-γGlu-C20 diacid])ELAATQRFLEHLV-NH2 [SEQ ID NO: 80]
3. H[Aib]EGTFTSDVSVLK([AEEA-AEEA-γGlu-C20 diacid])ETAA[Aib]QRFLEHLV-NH2 (also: K14 lipid also given as C18DA[γE][OEG][OEG]-) [SEQ ID NO: 101]
4. H[Aib]EGTFTSDVSFLK([AEEA-AEEA-γGlu-C20 diacid])ETAA[Aib]QRFLEHLV-NH2 [SEQ ID NO: 25]
5. H[Aib]EGTFTSDVSFLK([AEEA-AEEA-γGlu-C20 diacid])EEAASQRFLEHLV-NH2 [SEQ ID NO: 38]

### Response
["10.8 -log M", "10.7 -log M", "9.7 -log M", "9 -log M", "10.5 -log M"]

For the 6 binders below, give their pEC50 hGLPR1 values.
1. H[Aib]EGTFTSDVSYLKEEAALQRFLEHLV-NH2 (not fully specified (residue 14)) [SEQ ID NO: 137]
2. H[Aib]EGTFTSDVSYLKEEA[Aib]EQRFLEHLV-NH2 (not fully specified (residue 14)) [SEQ ID NO: 150]
3. H[Aib]EGTFTSDVSYLK([AEEA-AEEA-γGlu-C20 diacid])EFAASQRFLEHLV-NH2 [SEQ ID NO: 66]
4. H[Aib]EGTFTSDVSRLK([AEEA-AEEA-γGlu-C20 diacid])EFAAQQRFLEHLV-NH2 [SEQ ID NO: 24]
5. H[Aib]EGTFTSDVSYLKEEA[Aib]LQRFLEELV-NH2 (not fully specified (residue 14)) [SEQ ID NO: 151]
6. H[Aib]EGTFTSDVSRLK([AEEA-AEEA-γGlu-C20 diacid])EFAAEQRFLEHLV-NH2 [SEQ ID NO: 72]

### Response
["11.1 -log M", "11.3 -log M", "10.4 -log M", "10.3 -log M", "10.6 -log M", "10 -log M"]

Quick batch: pEC50 hGLPR1 for everything below.
1. H[Aib]EGTFTSDVSELK([AEEA-AEEA-γGlu-C20 diacid])E[Aib]AAQQRFLEHLV-NH2 [SEQ ID NO: 5]
2. H[Aib]EGTFTSDVSFLK([AEEA-AEEA-γGlu-C20 diacid])EEAAAQRFLEHLV-NH2 [SEQ ID NO: 63]

### Response
1. 10.9 -log M
2. 10.3 -log M
